Source: patent US8741932B2

- TARGET: mTOR (Homo sapiens, UniProt P42345)
- Construct: endogenous in cells
- ASSAY_METHOD_TEXT: mTOR activity assay (cell ELISA, Phospho-AKT Ser 473, A2780 cells)
pIC50: −log10 of the molar value.
Reported pIC50 by item:

>>> print(df.to_string())
                                   compound      reported
0  Cc1ccc(F)cc1S(=O)(=O)N(C)N=Cc1cnc2ccc(-c3cccnc3)cn12 [Example 21]  5.30 to 6.00

Please list pIC50 recorded for the compound Cc1ccc([N+](=O)[O-])cc1S(=O)(=O)N(C)N=Cc1cnc2ccc(-c3cccnc3)cn12 [Example 25]
5.30 to 6.00

Please list pIC50 recorded for the compound Cc1ccc(F)cc1S(=O)(=O)N(C)/N=C/c1cnc2ccc(-c3cc4ccccc4[nH]3)cn12 [Example 115]
5.00 to 5.30

Please list pIC50 recorded for the compound CN(N=Cc1cnc2ccc(-c3cccnc3)cn12)S(=O)(=O)c1cccc(F)c1 [Example 5]
5.30 to 6.00
